B1: TPRG1 (parent)
chain: ETIQGFWLLTKIDHWNNEKERILL

# Variants of: B1
# experimentDescription: protein stability index of a GFP-peptide fusion (GPS, HEK-293T) (PSI 1-6); higher = more stable;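 note: lentivirally expressed fusions sorted by FACS into six bins by GFP to DsRed ratio, PSI derived from sequencing read proportions per bin multiplied by bin number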
# experimentalParameters: c terminus: a fixed tail appended
The variants listed here are annotated with their protein stability index.
Reply: number alone, nothing else.

Sample answers from the record:
| variantSpec | protein stability index |
| --- | --- |
| F6R | 1.91 |
| L23I | 3.88 |
| T10E | 2.91 |
| L9N | 1.16 |
| F6S | 2.37 |
| L23K | 1.23 |
| K19I | 2.47 |
| T2R | 3.03 |
| E1A | 2.75 |
| L23W | 3.52 |

// recorded protein stability index for I22R : 1.48

What the record says about I22Y : protein stability index is 1.63

// protein stability index lookup, variant = W7R , result: 2.23
